# Tested on: Streptococcus pneumoniae D39
# Assay Details: Agonist activity at ComD1 receptor in Streptococcus pneumoniae D39 harboring pcomX/lacZ reporter gene at 10 uM incubated for 30 mins by ONPG based beta-galactosidase assay relative to native CSP1
Activity calls are given as the source filed them. The rule behind the calls is not given here. Non-standard residues stand in square brackets, D forms with d. Residues, ends and D or L forms follow the SMILES beside them. NMeR = CN[C@@H](CCCNC(=N)N)C(=O)O; NMeF = CN[C@@H](Cc1ccccc1)C(=O)O; NMeI = CC[C@H](C)[C@H](NC)C(=O)O; NMeQ = CN[C@@H](CCC(N)=O)C(=O)O; NMeL = CN[C@@H](CC(C)C)C(=O)O
Property: Activity

# count of solved cases: 4
[in] Entry CC[C@H](C)[C@H](NC(=O)[C@H](CCCNC(=N)N)NC(=O)[C@H](CCSC)NC(=O)[C@@H](N)CCC(=O)O)C(=O)N[C@@H](CO)C(=O)N[C@@H](CCCNC(=N)N)C(=O)N[C@H](C(=O)N(C)[C@H](C(=O)N[C@@H](CC(C)C)C(=O)N[C@@H](CC(=O)O)C(=O)N[C@@H](Cc1ccccc1)C(=O)N[C@@H](CC(C)C)C(=O)N[C@@H](Cc1ccccc1)C(=O)O)[C@@H](C)CC)[C@@H](C)CC (H-EMRISRI[NMeI]LDFLF-OH) has what Activity?
[out] inactive

[in] Request the reported Activity associated with CC[C@H](C)[C@H](NC(=O)[C@H](Cc1ccccc1)NC(=O)[C@H](CC(=O)O)NC(=O)[C@H](CCCNC(=N)N)NC(=O)[C@H](Cc1ccccc1)NC(=O)[C@H](Cc1ccccc1)NC(=O)[C@H](CCCCN)NC(=O)[C@H](CO)NC(=O)[C@H](CC(C)C)NC(=O)[C@H](CCCNC(=N)N)NC(=O)[C@H](CCSC)NC(=O)[C@@H](N)CCC(=O)O)C(=O)N[C@@H](CC(C)C)C(=O)N(C)[C@@H](CCC(N)=O)C(=O)N[C@@H](CCCNC(=N)N)C(=O)O (H-EMRLSKFFRDFIL[NMeQ]R-OH)
[out] > 75%

[in] Recorded Activity for CC[C@H](C)[C@H](NC(=O)[C@H](CCCNC(=N)N)NC(=O)[C@H](CCSC)NC(=O)[C@@H](N)CCC(=O)O)C(=O)N[C@@H](CO)C(=O)N(C)[C@@H](CCCNC(=N)N)C(=O)N[C@H](C(=O)N[C@H](C(=O)N[C@@H](CC(C)C)C(=O)N[C@@H](CC(=O)O)C(=O)N[C@@H](Cc1ccccc1)C(=O)N[C@@H](CC(C)C)C(=O)N[C@@H](Cc1ccccc1)C(=O)O)[C@@H](C)CC)[C@@H](C)CC (H-EMRIS[NMeR]IILDFLF-OH) , please?
[out] inactive

[in] So what does the record say about Activity for CC[C@H](C)[C@H](NC(=O)[C@H](Cc1ccccc1)NC(=O)[C@H](CC(=O)O)NC(=O)[C@H](CCCNC(=N)N)NC(=O)[C@H](Cc1ccccc1)NC(=O)[C@H](Cc1ccccc1)N(C)C(=O)[C@H](CCCCN)NC(=O)[C@H](CO)NC(=O)[C@H](CC(C)C)NC(=O)[C@H](CCCNC(=N)N)NC(=O)[C@H](CCSC)NC(=O)[C@@H](N)CCC(=O)O)C(=O)N[C@@H](CC(C)C)C(=O)N[C@@H](CCC(N)=O)C(=O)N[C@@H](CCCNC(=N)N)C(=O)O (H-EMRLSK[NMeF]FRDFILQR-OH) ?
[out] > 75%

Others:
[in] Give its Activity value. Item: CC[C@H](C)[C@H](NC(=O)[C@H](CCCNC(=N)N)NC(=O)[C@H](CCSC)NC(=O)[C@@H](N)CCC(=O)O)C(=O)N[C@@H](CO)C(=O)N[C@@H](CCCNC(=N)N)C(=O)N[C@H](C(=O)N[C@H](C(=O)N(C)[C@@H](CC(C)C)C(=O)N[C@@H](CC(=O)O)C(=O)N[C@@H](Cc1ccccc1)C(=O)N[C@@H](CC(C)C)C(=O)N[C@@H](Cc1ccccc1)C(=O)O)[C@@H](C)CC)[C@@H](C)CC (H-EMRISRII[NMeL]DFLF-OH)
[out] inactive
